Parameter TGI: see the listing below.
# System: MCF7 breast
# method.notes: NCI tumour cell line growth inhibition, 48 h

| molecule | TGI |
| --- | --- |
| CCOC(=O)/C1=C(\C)N(c2ccc(C)cc2)C(=O)c2ccccc2C(=O)c2c(OC(C)=O)ccc(OC(C)=O)c21 | 97.7 µM |
| Cn1cc(C2=C(c3cn(CCCCCN)c4ccccc34)C(=O)NC2=O)c2ccccc21 | > 18 µM |
| COc1ccc2nc3ccccc3c(NCCCCCCN(CCCl)CCCl)c2c1 | 0.157 µM |
| C=CCSS/C=C/CS(=O)CC=C (stereo not given) | > 100 µM |
| Cc1cc(C)cc(Nc2cc(=O)[nH]c(=O)[nH]2)c1 | > 100 µM |
| N#CC(=NCCO)C1=C(O)c2ccccc2C1=O | > 100 µM |
| CC(C)N=c1cc2n(-c3ccc(Cl)cc3)c3ccccc3nc-2cc1Nc1ccc(Cl)cc1 | > 100 µM |
| COc1cc(CNc2ccc(SC)cc2)cc(OC)c1OC | > 100 µM |
| COc1ccc2c(c1)[C@@]13CCCC[C@H]1[C@@H](C2)N(C)CC3=O | 33.2 µM |
| COc1ccc(-c2oc3cc(O)c(OC)c(O)c3c(=O)c2OC)cc1O | > 100 µM |
| CC1Cn2c(nc3ccccc32)NC1=O (stereo not given) | > 100 µM |
| CC1CCOc2ccc(cc2)C=Nc2ccc(cc2)CCc2ccc(cc2)N=Cc2ccc(cc2)OCC1 (stereo not given) | > 100 µM |
| Oc1cn(-c2ccc(Cl)cc2)nc1-c1n[nH]c(=S)n1C1CCCCC1 | > 100 µM |
| CCOC(=O)c1ccc(N2C(=S)N(C(=O)c3ccccc3)C(=Nc3ccccc3)C2=Nc2ccccc2)cc1 | > 100 µM |
| CCOC(=O)/C=C(\C(=O)OCC)n1cc(C)c(=O)n(Cc2cnnn2CCCCOC(C)=O)c1=O | 21.5 µM |
